# Tested on: PC-3 prostate
# TEST METHOD NOTES: NCI tumour cell line growth inhibition, 48 h
Please go through the items and note down their TGI.

Sure, the documented TGI for CS(=O)(=O)Nc1cccc(-c2ccc3c(NC(=O)C4CC4)n[nH]c3c2)c1 is > 25 µM

Sure, the documented TGI for CC(=O)O[C@H]1[C@@H](OC2CCCC2(c2ccccc2)c2ccccc2)O[N+]([O-])=C[C@@]12COCc1cc3c(cc12)OCO3 (stereo partly specified) is 19.3 µM

Sure, the documented TGI for O=C(N/N=C/C=C/c1ccc([N+](=O)[O-])o1)c1ccc(Br)s1 is 49.7 µM

Sure, the documented TGI for N#Cc1c(NC(=O)c2cccc3ccccc23)sc2c1CCCC2 is > 25 µM

Sure, the documented TGI for Cn1c(=O)c2nc3nnc(C#N)c(N)n3c2n(C)c1=O is > 100 µM

Sure, the documented TGI for COC1=CC(=O)c2c(O)ccc(O)c2C1=O is 41.4 µM

Sure, the documented TGI for O=C(N/N=c1/ccoc2cccnc12)N1CCN(c2ncccn2)CC1 is 6.38 µM

Sure, the documented TGI for COc1cc(C(=O)N2CCN(c3ccccc3OC)CC2)c(N)cc1OCc1ccccc1 is > 100 µM

Sure, the documented TGI for COc1ccc(C(=O)/C=C/c2ccc(OCC(=O)O)cc2)cc1 is > 100 µM

Sure, the documented TGI for Oc1ccc2ccccc2c1C(c1ccc(Cl)cc1)c1c(O)ccc2ccccc12 is 7.7 µM

Sure, the documented TGI for COC(=O)c1cc2c3ccccc3n3c(=O)c4cc5cc(OC)c(N(S(=O)(=O)c6ccc(C)cc6)S(=O)(=O)c6ccc(C)cc6)cc5nc4c(n1)c23 is > 100 µM

Sure, the documented TGI for COc1ccc(-c2oc3cc(OC)c(OC)c(OC)c3c(=O)c2OC)cc1OC is > 100 µM

Sure, the documented TGI for O=C1NC(N/N=C/c2ccccc2)=N/C1=C\c1cccs1 is 26.7 µM

Sure, the documented TGI for NC(N)=N/N=C(/c1ccccc1)c1ccc(Cl)cc1 is > 100 µM

Sure, the documented TGI for O=C(O)CSc1nnc(CCCCCCCCc2nnc(SCC(=O)O)o2)o1 is > 100 µM

Sure, the documented TGI for CCCCCCCCCCCCCCCCOC(=O)c1c(C)[nH]c(/C=C2\N=C(c3ccc[nH]3)C=C2OC)c1C is > 100 µM

Sure, the documented TGI for O=C1c2ccccc2C(=O)c2c1oc(=O)c1ccccc21 is 19.2 µM

Sure, the documented TGI for CC1(C)N=C(N)N=C(N)N1c1ccc(OCC(=O)N2CCOCC2)c(Cl)c1 is > 100 µM

Sure, the documented TGI for Cc1[nH]n(-c2ccc(S(=O)(=O)O)cc2)c(=O)c1N=Nc1ccccc1 is > 100 µM

Sure, the documented TGI for CCOC(=O)NC(NNc1ccc([N+](=O)[O-])cc1[N+](=O)[O-])(C(F)(F)F)C(F)(F)F is > 100 µM

Sure, the documented TGI for N#CC(C#N)=Cc1ccc(C=C2SC3=C(SCCS3)S2)s1 is > 100 µM
